Biological target: UniProt:Q9GZT9
Sequence (Q9GZT9 whole entry): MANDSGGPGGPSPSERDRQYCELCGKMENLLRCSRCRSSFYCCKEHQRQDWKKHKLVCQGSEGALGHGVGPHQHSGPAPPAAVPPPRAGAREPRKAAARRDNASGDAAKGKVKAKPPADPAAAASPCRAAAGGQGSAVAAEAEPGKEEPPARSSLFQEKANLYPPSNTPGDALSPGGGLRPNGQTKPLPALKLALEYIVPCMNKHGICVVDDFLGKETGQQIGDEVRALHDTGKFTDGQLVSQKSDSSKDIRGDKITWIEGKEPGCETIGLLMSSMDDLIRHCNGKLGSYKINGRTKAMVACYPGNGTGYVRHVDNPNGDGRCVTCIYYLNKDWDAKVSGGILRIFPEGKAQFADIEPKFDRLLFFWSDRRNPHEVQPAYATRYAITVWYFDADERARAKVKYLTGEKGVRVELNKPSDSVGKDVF
Test: Inhibition of PHD2 (unknown origin) using [1-14C]alphaKG as substrate assessed as substrate decarboxylation by measuring 14CO2 production incubated for 2 hrs by microplate reader analysis
READOUT TYPE: IC50 (nM)
Write down the numeric answer in nM and omit the unit.

GET /value?item= O=C(NCc1ccncc1)c1ncc2c(=O)n(Cc3ccccc3)ccc2c1O &field=IC50 returns 200
